experiment: in vivo; conditions: rat, po
assay-endpoint: bioavailability (%)

INSERT INTO results (entry_smiles, measured_result) VALUES
  ('COc1ccc(-c2ccc3ncc4c(c3n2)n(C2CCN(C)CC2)c(=O)n4C)cn1', 76);

###

test: physchem
assay-endpoint: solubility kinetic (µM)

INSERT INTO assay_data (entry_smiles, assay_endpoint, measured_result) VALUES
  ('COc1ccc(-c2ccc3ncc4c(c3n2)n(-c2ccc(C(C)(C)C#N)cc2)c(=O)n4C)cn1', 'solubility kinetic', 2),
  ('COc1ccc(-c2ccc3ncc4c(c3n2)n([C@H]2CC[C@H](OCCO)CC2)c(=O)n4C)cn1', 'solubility kinetic', 117),
  ('C[C@H](O)C(=O)N1CCC(n2c(=O)n(C)c3cnc4ccc(-c5cccc6[nH]ncc56)nc4c32)CC1', 'solubility kinetic', 444),
  ('COc1ccc(-c2ccc3ncc4c(c3n2)n(C2CCN(C(C)=O)CC2)c(=O)n4C)cn1', 'solubility kinetic', 22),
  ('CC(=O)N1CCC(n2c(=O)n(C)c3cnc4ccc(-c5ccc(C)nc5)nc4c32)CC1', 'solubility kinetic', 455),
  ('COc1ccc(-c2ccc3ncc4c(c3n2)n([C@H]2CC[C@H](O)CC2)c(=O)n4C)cn1', 'solubility kinetic', 22.2),
  ('CC(=O)N1CCC(n2c(=O)n(C)c3cnc4ccc(-c5cccc6[nH]ncc56)nc4c32)CC1', 'solubility kinetic', 55.5);
